- target.under.test: human Melatonin receptor 1 (MT1) (Homo sapiens, UniProt P48039)
- Sequence (P48039 whole entry): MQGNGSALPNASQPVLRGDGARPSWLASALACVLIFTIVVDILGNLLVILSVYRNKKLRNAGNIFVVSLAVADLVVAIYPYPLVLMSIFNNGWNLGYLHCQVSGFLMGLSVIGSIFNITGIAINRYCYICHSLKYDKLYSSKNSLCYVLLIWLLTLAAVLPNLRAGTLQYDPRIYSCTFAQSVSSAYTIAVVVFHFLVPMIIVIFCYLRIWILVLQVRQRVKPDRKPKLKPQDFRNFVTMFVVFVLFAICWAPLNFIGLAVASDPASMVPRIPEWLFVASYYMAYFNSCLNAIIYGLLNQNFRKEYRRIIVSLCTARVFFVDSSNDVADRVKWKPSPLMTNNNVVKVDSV
- method.notes: biochemical
- study.conditions: read-out: MT1 Receptor GTPgS Emax
Catalogue of Emax values
Give just the number in %; leave the unit off.

Please review the following examples before continuing.
Enquiry: Find the recorded Emax belonging to "CCCNC(=O)c1nnc2c(-c3cnc(OC)nc3OC)cccc2c1N" and report it.
Return: 70

Enquiry: Find the recorded Emax belonging to "CCCNC(=O)c1nnc2c(-c3cnccc3OC)cccc2c1N" and report it.
Return: 64

Enquiry: Find the recorded Emax belonging to "CCCNC(=O)c1nnc2c(-c3cc(OC)ccc3OC)c(F)ccc2c1N" and report it.
Return: 64

Switching to the query record.
Enquiry: Find the recorded Emax belonging to "CCCNC(=O)c1nnc2c(-c3cc(C)ccc3OC)cccc2c1N" and report it.
Return: 61

====

- target.under.test: human Melatonin receptor 1 (MT1) (Homo sapiens, UniProt P48039)
- method.notes: biochemical
- study.conditions: hMT1/HEK293F membranes, agonist potency; read-out: MT1 Receptor GTPgS EC50
readout.label: pEC50
Please keep in mind that pEC50 is minus log10 of the molar concentration; only the number is needed.

Please review the following examples before continuing.
Enquiry: Find the recorded pEC50 belonging to CCCNC(=O)c1nnc2c(-c3cc(OC)ccc3OC)cccc2c1N [drawing 421] and report it.
Return: 7.57

Enquiry: Find the recorded pEC50 belonging to CCCNC(=O)c1nnc2c(-c3cc(OC)ccc3OC)cccc2c1N [drawing 417] and report it.
Return: 7.43

Switching to the query record.
Enquiry: Find the recorded pEC50 belonging to "CCCNC(=O)c1nnc2c(-c3cc(OC)ccc3OC)c(F)ccc2c1N" and report it.
Return: 7.63

====

- target.under.test: GABAA2 (human α2β3γ2 GABAA receptor) (Homo sapiens, UniProt P18507+P47869)
- Construct: expressed in transfected cells; host or cells: Xenopus laevis oocytes injected with capped cRNA
- Sequence (P47869 29-451): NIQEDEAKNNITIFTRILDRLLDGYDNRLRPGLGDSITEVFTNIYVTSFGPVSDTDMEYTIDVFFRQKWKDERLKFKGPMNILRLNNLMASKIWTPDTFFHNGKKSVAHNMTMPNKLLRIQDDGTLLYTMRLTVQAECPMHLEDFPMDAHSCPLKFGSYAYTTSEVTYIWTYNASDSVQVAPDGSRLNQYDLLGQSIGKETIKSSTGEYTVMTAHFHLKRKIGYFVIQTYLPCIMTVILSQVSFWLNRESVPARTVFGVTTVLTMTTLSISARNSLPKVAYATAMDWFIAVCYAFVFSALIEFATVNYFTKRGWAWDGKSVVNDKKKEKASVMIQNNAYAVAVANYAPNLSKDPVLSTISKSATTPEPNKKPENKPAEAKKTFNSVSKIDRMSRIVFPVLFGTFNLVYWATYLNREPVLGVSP
- Sequence (P28472 26-473 partner): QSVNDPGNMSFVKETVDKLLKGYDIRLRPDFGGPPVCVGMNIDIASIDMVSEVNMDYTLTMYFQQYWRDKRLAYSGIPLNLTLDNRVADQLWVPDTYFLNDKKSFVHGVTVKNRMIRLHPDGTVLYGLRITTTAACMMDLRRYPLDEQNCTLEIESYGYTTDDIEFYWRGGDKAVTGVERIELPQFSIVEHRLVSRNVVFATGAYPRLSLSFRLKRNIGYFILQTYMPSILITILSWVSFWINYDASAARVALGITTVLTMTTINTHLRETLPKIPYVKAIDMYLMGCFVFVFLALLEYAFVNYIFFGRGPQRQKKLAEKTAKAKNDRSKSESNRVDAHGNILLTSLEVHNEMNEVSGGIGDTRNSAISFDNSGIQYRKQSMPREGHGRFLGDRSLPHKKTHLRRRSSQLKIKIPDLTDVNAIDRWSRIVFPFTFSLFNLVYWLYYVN
- Sequence (P18507 40-475): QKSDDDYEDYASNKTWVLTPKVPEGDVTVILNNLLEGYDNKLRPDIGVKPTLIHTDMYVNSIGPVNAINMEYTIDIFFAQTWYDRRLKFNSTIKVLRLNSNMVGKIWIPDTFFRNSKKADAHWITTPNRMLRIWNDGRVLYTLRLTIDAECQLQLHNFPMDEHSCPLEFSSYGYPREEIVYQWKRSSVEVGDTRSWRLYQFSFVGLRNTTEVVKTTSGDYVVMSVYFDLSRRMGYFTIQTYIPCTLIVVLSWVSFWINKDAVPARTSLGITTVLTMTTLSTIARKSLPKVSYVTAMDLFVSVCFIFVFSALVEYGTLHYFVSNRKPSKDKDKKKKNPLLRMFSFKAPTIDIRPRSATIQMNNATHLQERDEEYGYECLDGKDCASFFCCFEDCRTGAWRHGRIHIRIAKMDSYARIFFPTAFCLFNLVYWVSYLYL
- method.notes: Two-electrode voltage-clamp in Xenopus oocytes, potentiation of GABA EC10 current, GABAA2
- Assay type: cell-based
- study.conditions: percentage potentiation of GABA EC10 current divided by that of diazepam
Catalogue of Relative Potentiation for GABAA2 values
Give the figure by itself; no unit, no explanation.

Please review the following examples before continuing.
Enquiry: Find the recorded Relative Potentiation for GABAA2 belonging to "CCCNC(=O)c1nnc2c(-c3cccnc3)cccc2c1N" and report it.
Return: 0.054

Enquiry: Find the recorded Relative Potentiation for GABAA2 belonging to "CCCNC(=O)c1nnc2c(-c3cnc(OC)nc3)cccc2c1N" and report it.
Return: 0.11

Enquiry: Find the recorded Relative Potentiation for GABAA2 belonging to "CCCNC(=O)c1nnc2c(-c3ccc(OC)nc3OC)cccc2c1N" and report it.
Return: 0.25

Switching to the query record.
Enquiry: Find the recorded Relative Potentiation for GABAA2 belonging to "CCCNC(=O)c1nnc2c(-c3ccc(OC)c(OC)c3OC)cccc2c1N" and report it.
Return: 0.33

====

- target.under.test: GABAA2 receptors (α2, β3, γ2 receptor subunits) (Homo sapiens, UniProt P18507+P47869)
- method.notes: biochemical
- study.conditions: [3H]-Flunitrazepam ~2 nM, α2β3γ2 Sf9 membranes, 1 hr at 4° C.; read-out: GABAA2 Binding Ki
Records here are stratified by Ki; strata: lower: < 2 nM; middle: ≥ 2 nM and < 10 nM; upper: ≥ 10 nM

Enquiry: Entry "CCCNC(=O)c1nnc2c(-c3cc(C)ccc3C)c(F)ccc2c1N" belongs to which category?
Return: lower

More entries:
Enquiry: Entry "CCNC(=O)c1nnc2c(-c3cnc(OC)c(F)c3)cccc2c1N" belongs to which category?
Return: middle

Enquiry: Entry "C=CCNC(=O)c1nnc2c(-c3cc(OC)ccc3OC)cccc2c1N" belongs to which category?
Return: middle

Enquiry: Entry "CCCNC(=O)c1nnc2c(-c3ccccc3)c(Cl)ccc2c1N" belongs to which category?
Return: middle

Enquiry: Entry "CCCNC(=O)c1nnc2c(-c3ccc(N(C)C)cc3)cccc2c1N" belongs to which category?
Return: upper

Enquiry: Entry "CCCNC(=O)c1nnc2c(-c3cc(F)c(OC)cc3F)cccc2c1N" belongs to which category?
Return: lower

Enquiry: Entry "CCCNC(=O)c1nnc2c(-c3cnc(OC)nc3OC)c(F)ccc2c1N" belongs to which category?
Return: lower

Enquiry: Entry "CCNC(=O)c1nnc2c(-c3cc(C)ccc3OC)cccc2c1N" belongs to which category?
Return: upper

Enquiry: Entry "CCCNC(=O)c1nnc2c(-c3cnc(OC)c(F)c3)cccc2c1N" belongs to which category?
Return: upper

Enquiry: Entry "CCCNC(=O)c1nnc2c(-c3cc(C(F)(F)F)cc(C(F)(F)F)c3)cccc2c1N" belongs to which category?
Return: upper

Enquiry: Entry "COc1ccc(-c2cccc3c(N)c(C(=O)NC4CC4)nnc23)c(OC)n1" belongs to which category?
Return: lower

Enquiry: Entry "CCCNC(=O)c1nnc2c(-c3ccc(OC)c(C)c3)cccc2c1N" belongs to which category?
Return: upper

Enquiry: Entry "CCCNC(=O)c1nnc2c(-c3cccc(Cl)c3Cl)cccc2c1N" belongs to which category?
Return: lower

Enquiry: Entry "CCCNC(=O)c1nnc2c(-c3cnccn3)cccc2c1N" belongs to which category?
Return: upper

Enquiry: Entry "CCCNC(=O)c1nnc2c(-c3cc(C)c(OC)c(C)c3)cccc2c1N" belongs to which category?
Return: upper

Enquiry: Entry "CCCNC(=O)c1nnc2c(-c3cc(C)ccc3F)cccc2c1N" belongs to which category?
Return: lower

Enquiry: Entry "CCCNC(=O)c1nnc2c(-c3cccnc3OC)cccc2c1N" belongs to which category?
Return: middle

Enquiry: Entry "CCCNC(=O)c1nnc2c(-c3cc(C)ccc3OC)c(Cl)ccc2c1N" belongs to which category?
Return: middle

Enquiry: Entry "CCCNC(=O)c1nnc2c(-c3cnc4ccccc4c3)cccc2c1N" belongs to which category?
Return: upper

Enquiry: Entry "CCCNC(=O)c1nnc2c(-c3ccc(C)nc3F)cccc2c1N" belongs to which category?
Return: lower

Enquiry: Entry "CCCNC(=O)c1nnc2c(-c3cc(F)ccc3C)cccc2c1N" belongs to which category?
Return: middle

Enquiry: Entry "CCCNC(=O)c1nnc2c(-c3ccc4ccccc4c3)cccc2c1N" belongs to which category?
Return: upper

Enquiry: Entry "CCCNC(=O)c1nnc2c(-c3cc(F)cc(F)c3OC)c(F)ccc2c1N" belongs to which category?
Return: middle

Enquiry: Entry "CCCNC(=O)c1nnc2c(-c3cc(C)ccc3OC)c(F)ccc2c1N" belongs to which category?
Return: lower

Enquiry: Entry "CCCNC(=O)c1nnc2c(-c3cc(F)ccc3OC)cccc2c1N" belongs to which category?
Return: upper

Enquiry: Entry "CCCNC(=O)c1nnc2c(-c3c(F)cccc3OC)c(F)ccc2c1N" belongs to which category?
Return: lower

Enquiry: Entry "CCCNC(=O)c1nnc2c(-c3ccc(F)cc3OC)cccc2c1N" belongs to which category?
Return: middle

====

- target.under.test: GABAA1 (human α1β2γ2 GABAA receptor) (Homo sapiens, UniProt P14867+P18507)
- Construct: expressed in transfected cells; host or cells: Xenopus laevis oocytes injected with capped cRNA
- Sequence (P14867 28-456, one chain of several): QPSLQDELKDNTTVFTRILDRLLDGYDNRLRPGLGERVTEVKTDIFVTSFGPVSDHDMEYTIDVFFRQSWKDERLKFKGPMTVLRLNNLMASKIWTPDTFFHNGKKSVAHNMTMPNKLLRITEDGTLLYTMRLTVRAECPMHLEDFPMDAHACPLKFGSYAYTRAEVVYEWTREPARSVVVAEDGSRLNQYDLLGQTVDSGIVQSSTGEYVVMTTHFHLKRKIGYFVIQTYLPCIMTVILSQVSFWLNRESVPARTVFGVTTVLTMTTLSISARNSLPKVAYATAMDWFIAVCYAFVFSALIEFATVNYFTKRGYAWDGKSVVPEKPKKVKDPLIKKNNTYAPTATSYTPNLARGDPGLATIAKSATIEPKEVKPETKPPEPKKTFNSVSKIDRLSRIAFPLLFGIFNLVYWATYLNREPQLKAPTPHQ
- Sequence (P47870 25-512 partner limits assumed, one chain of several): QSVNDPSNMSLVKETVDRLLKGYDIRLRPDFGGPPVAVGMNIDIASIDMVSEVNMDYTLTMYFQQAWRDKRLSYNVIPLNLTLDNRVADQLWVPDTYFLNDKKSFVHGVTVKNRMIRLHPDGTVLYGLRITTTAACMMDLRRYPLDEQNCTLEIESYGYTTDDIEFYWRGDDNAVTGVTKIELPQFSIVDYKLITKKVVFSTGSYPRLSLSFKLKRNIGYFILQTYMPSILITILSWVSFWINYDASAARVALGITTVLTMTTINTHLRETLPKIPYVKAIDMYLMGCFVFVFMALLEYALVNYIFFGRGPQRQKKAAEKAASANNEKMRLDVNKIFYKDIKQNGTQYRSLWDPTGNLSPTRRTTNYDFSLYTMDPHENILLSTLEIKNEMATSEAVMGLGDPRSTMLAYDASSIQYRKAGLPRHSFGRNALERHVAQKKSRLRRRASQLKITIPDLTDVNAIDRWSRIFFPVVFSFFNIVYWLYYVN
- method.notes: Two-electrode voltage-clamp in Xenopus oocytes, potentiation of GABA EC10 current, GABAA1
- Format: cell-based
- study.conditions: percentage potentiation of GABA EC10 current divided by that of diazepam
So basically: Relative Potentiation for GABAA1 at 0.2 or higher? That is True. Lower than 0.2? That is False.

Below, 6 compounds whose answers are already recorded.
Enquiry: Can "CCCNC(=O)c1nnc2c(-c3cc(Cl)cc(Cl)c3)c(F)ccc2c1N" be said to have Relative Potentiation for GABAA1 at or above 0.2?
Return: True

Enquiry: Can "CCCNC(=O)c1nnc2c(-c3ccc(F)cc3OC)c(F)ccc2c1N" be said to have Relative Potentiation for GABAA1 at or above 0.2?
Return: False

Enquiry: Can "CCCNC(=O)c1nnc2c(-c3cc(Cl)cc(Cl)c3)cccc2c1N" be said to have Relative Potentiation for GABAA1 at or above 0.2?
Return: True

Enquiry: Can "CCCNC(=O)c1nnc2c(-c3ccc(C)cc3)cccc2c1N" be said to have Relative Potentiation for GABAA1 at or above 0.2?
Return: False

Enquiry: Can "CCCNC(=O)c1nnc2c(-c3cc(C)ccc3C)c(F)ccc2c1N" be said to have Relative Potentiation for GABAA1 at or above 0.2?
Return: True

Enquiry: Can "CCCNC(=O)c1nnc2c(-c3cc(OC)ccc3OC)c(Cl)ccc2c1N" be said to have Relative Potentiation for GABAA1 at or above 0.2?
Return: True

More entries:
Enquiry: Can "CCCNC(=O)c1nnc2c(-c3ccc(OC)cc3OC)c(Cl)ccc2c1N" be said to have Relative Potentiation for GABAA1 at or above 0.2?
Return: True

Enquiry: Can "CCCNC(=O)c1nnc2c(-c3cc(OC)ccc3Cl)c(F)ccc2c1N" be said to have Relative Potentiation for GABAA1 at or above 0.2?
Return: False

Enquiry: Can "CCCNC(=O)c1nnc2c(-c3cnc4ccccc4c3)cccc2c1N" be said to have Relative Potentiation for GABAA1 at or above 0.2?
Return: False

Enquiry: Can "CCCNC(=O)c1nnc2c(-c3cccc(S(C)(=O)=O)c3)cccc2c1N" be said to have Relative Potentiation for GABAA1 at or above 0.2?
Return: True

Enquiry: Can "CCCNC(=O)c1nnc2c(-c3ccc(F)cc3F)cccc2c1N" be said to have Relative Potentiation for GABAA1 at or above 0.2?
Return: False
